Reported IC50 values for the following compounds.
system: L1210; experiment: In vitro cytotoxicity against L1210 (murine leukemia) cells.; type: functional, cell-based; conditions: Mus musculus

Here is how some compounds turned out for IC50.
COc1ccc(C[C@H]2C(=O)N[C@@H](C)C(=O)N(C)CC(=O)N(C)CC(=O)N[C@H](C)C(=O)N[C@@H](C)C(=O)N2C)cc1 :: > 100 µg/mL
COc1ccc(C[C@H]2C(=O)N[C@@H](C)C(=O)N(C)[C@@H](Cc3ccc(O)cc3)C(=O)N(C)[C@@H](Cc3ccc(O)cc3)C(=O)N[C@H](C)C(=O)N[C@@H](C)C(=O)N2C)cc1 :: > 100 µg/mL
COC(=O)[C@@H]1Cc2ccc(OC)c(c2)Oc2ccc(cc2)CCC(=O)N1 :: > 100 µg/mL
COc1ccc2cc1Oc1ccc(cc1)CCC(=O)NCC2 :: > 100 µg/mL
O=C1CCc2ccc(cc2)Oc2cccc(c2)CCN1 :: > 100 µg/mL
COC(=O)[C@@H]1Cc2ccc(O)c(c2)Oc2ccc(cc2)CCC(=O)N1 :: > 100 µg/mL
COc1ccc2cc1Oc1ccc(cc1)CCC(=O)N(C)CC2 :: > 100 µg/mL

We next turn to a different compound, shown below.
INPUT: Query the reported IC50 for L1210; item: CN1CCc2cccc(c2)Oc2ccc(cc2)CCC1=O
OUTPUT: > 100 µg/mL
